Biological target: RhoA-LARG interaction (Homo sapiens)
Construct: human LARG (residues 765-1,138); made in house; host or cells: E. coli BL21 (DE3) (LARG), E. coli DH5α (GST-RhoA)
Sequence (Q9NZN5 765-1138 limits assumed): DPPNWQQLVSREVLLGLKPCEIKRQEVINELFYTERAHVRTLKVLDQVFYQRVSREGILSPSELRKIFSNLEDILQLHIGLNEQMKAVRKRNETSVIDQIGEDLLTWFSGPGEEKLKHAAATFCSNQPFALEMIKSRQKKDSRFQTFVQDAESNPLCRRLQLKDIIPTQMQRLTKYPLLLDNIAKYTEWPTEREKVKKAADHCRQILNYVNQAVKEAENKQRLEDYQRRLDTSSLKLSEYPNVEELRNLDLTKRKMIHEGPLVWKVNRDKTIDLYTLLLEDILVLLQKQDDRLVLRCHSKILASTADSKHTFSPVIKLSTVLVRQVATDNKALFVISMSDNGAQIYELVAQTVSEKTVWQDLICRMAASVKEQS
Test: In vitro complex formation assay, LARG binding to RhoA
Settings: 100 μM compound; normalized to the inhibitory effect of Y16 of the same concentration; read-out: Relative binding inhibition, %
Item-by-item account of inhibition at 100 µM
Numbers only here, please. The scale is %.

[
  {
    "Mol Smiles": "COc1cc(/C=C2/C(=O)NN(c3ccccc3)C2=O)cc(Br)c1OCCOc1ccc(C)cc1",
    "System": "RhoA-LARG interaction (Homo sapiens)",
    "Measurement Units": "%",
    "inhibition at 100 µM": 13.8
  },
  {
    "Mol Smiles": "O=C1NN(c2ccccc2)C(=O)/C1=C\\C1=NCc2ccccc21",
    "System": "RhoA-LARG interaction (Homo sapiens)",
    "Measurement Units": "%",
    "inhibition at 100 µM": 6.75
  },
  {
    "Mol Smiles": "COc1cc(/C=C2/C(=O)NN(c3ccccc3)C2=O)ccc1O",
    "System": "RhoA-LARG interaction (Homo sapiens)",
    "Measurement Units": "%",
    "inhibition at 100 µM": 13
  },
  {
    "Mol Smiles": "O=C1NN(c2ccccc2)C(=O)/C1=C/c1ccc(OCc2ccccc2)cc1",
    "System": "RhoA-LARG interaction (Homo sapiens)",
    "Measurement Units": "%",
    "inhibition at 100 µM": 27.1
  }
]

Now for another entry.
## Task Quick one: inhibition at 100 µM for O=C1/C(=C\c2ccccc2OCc2ccccc2)CNN1c1ccc(Br)cc1 ?
## Result 7.34
